test: Solubility in buffered water at pH=7 after 24 hours (equilibrium); details: buffered water, pH 7, aqueous buffer, thermodynamic from solid
Catalogue of compounds with associated solubility at 24 h
measured.parameter: solubility at 24 h

{"columns": ["compound", "observed"],
 "data": [
  ["Oc1ccc(C=Cc2cc(O)cc(O)c2)cc1 [RESVERATROL (alone), resveratrol]", "150 µg/mL"],
  ["COC1=C(OC)C(=O)C(C/C=C(\\C)CC/C=C(\\C)CC/C=C(\\C)CC/C=C(\\C)CC/C=C(\\C)CC/C=C(\\C)CC/C=C(\\C)CC/C=C(\\C)CC/C=C(\\C)CCC=C(C)C)=C(C)C1=O [UBIDECARENONE (alone), ubidecarenone]", "2 µg/mL"]
]}
